Measurement record for cynomolgus TfR1; quantity recorded: Kd.

[
  {
    "compound": "CC[C@H](C)[C@@H]1NC(=O)[C@@H]2CSCC(=O)N3CN(CN(C3)C(=O)CSC[C@@H](C(=O)N[C@@H](C)C(N)=O)NC(=O)[C@H](Cc3cccc4ccccc34)NC(=O)[C@H](CO)NC1=O)C(=O)CSC[C@H](NC(=O)[C@H](C)N)C(=O)N[C@@H](CO)C(=O)N1CCC[C@H]1C(=O)N[C@@H](CC(=O)O)C(=O)N[C@@H](C)C(=O)N[C@@H](Cc1c[nH]cn1)C(=O)N[C@@H](CC(C)C)C(=O)NCC(=O)N2 [BCY16029, A-(SEQ ID NO: 39)-A]",
    "target system": "cynomolgus TfR1",
    "Kd (nM)": 5480
  },
  {
    "compound": "CC[C@H](C)[C@@H]1NC(=O)[C@@H]2CSCC(=O)N3CN(CN(C3)C(=O)CSC[C@H](NC(=O)[C@H](CC(N)=O)NC(=O)[C@H](Cc3c[nH]c4ccccc34)NC(=O)[C@H](CC(N)=O)NC(C)=O)C(=O)N[C@@H](CO)C(=O)N3CCC[C@H]3C(=O)N[C@@H](CC(=O)O)C(=O)N[C@@H](C)C(=O)N[C@@H](Cc3c[nH]cn3)C(=O)N[C@@H](CC(C)C)C(=O)NCC(=O)N2)C(=O)CSC[C@@H](C(N)=O)NC(=O)[C@H](Cc2ccc(O)cc2)NC(=O)[C@H](CO)NC1=O [BCY17992, Ac-NWN-(SEQ ID NO: 9)]",
    "target system": "cynomolgus TfR1",
    "Kd (nM)": 535
  },
  {
    "compound": "CC[C@H](C)[C@@H]1NC(=O)[C@@H]2CSCC(=O)N3CN(CN(C3)C(=O)CSC[C@H](NC(=O)[C@@H](NC(=O)[C@H](CCC(=O)O)NC(=O)[C@@H](N)CC(N)=O)C(C)C)C(=O)N[C@@H](CO)C(=O)N3CCC[C@H]3C(=O)N[C@@H](CC(=O)O)C(=O)N[C@@H](C)C(=O)N[C@@H](Cc3c[nH]cn3)C(=O)N[C@@H](CC(C)C)C(=O)NCC(=O)N2)C(=O)CSC[C@@H](C(=O)N[C@@H](C)C(N)=O)NC(=O)[C@H](Cc2ccc(O)cc2)NC(=O)[C@H](CO)NC1=O [BCY17112, NEV-(SEQ ID NO: 9)-A]",
    "target system": "cynomolgus TfR1",
    "Kd (nM)": 2600
  },
  {
    "compound": "CC[C@H](C)[C@@H]1NC(=O)[C@@H]2CSCC(=O)N3CN(CN(C3)C(=O)CSC[C@@H](C(=O)N[C@@H](CCC(=O)O)C(=O)N3CC[C@H]3C(=O)N[C@@H](Cc3c[nH]c4ccccc34)C(N)=O)NC(=O)[C@H](Cc3ccc(O)cc3)NC(=O)[C@H](CO)NC1=O)C(=O)CSC[C@H](NC(C)=O)C(=O)N[C@@H](CO)C(=O)N1CCC[C@H]1C(=O)N[C@@H](CC(=O)O)C(=O)N[C@@H](C)C(=O)N[C@@H](Cc1c[nH]cn1)C(=O)N[C@@H](CC(C)C)C(=O)NCC(=O)N2 [BCY18037, Ac-(SEQ ID NO: 9)-E[Aze]W]",
    "target system": "cynomolgus TfR1",
    "Kd (nM)": 1080
  }
]

* * *

- target system: human TfR1 (Homo sapiens, UniProt P02786)
- Sequence (P02786 89-760): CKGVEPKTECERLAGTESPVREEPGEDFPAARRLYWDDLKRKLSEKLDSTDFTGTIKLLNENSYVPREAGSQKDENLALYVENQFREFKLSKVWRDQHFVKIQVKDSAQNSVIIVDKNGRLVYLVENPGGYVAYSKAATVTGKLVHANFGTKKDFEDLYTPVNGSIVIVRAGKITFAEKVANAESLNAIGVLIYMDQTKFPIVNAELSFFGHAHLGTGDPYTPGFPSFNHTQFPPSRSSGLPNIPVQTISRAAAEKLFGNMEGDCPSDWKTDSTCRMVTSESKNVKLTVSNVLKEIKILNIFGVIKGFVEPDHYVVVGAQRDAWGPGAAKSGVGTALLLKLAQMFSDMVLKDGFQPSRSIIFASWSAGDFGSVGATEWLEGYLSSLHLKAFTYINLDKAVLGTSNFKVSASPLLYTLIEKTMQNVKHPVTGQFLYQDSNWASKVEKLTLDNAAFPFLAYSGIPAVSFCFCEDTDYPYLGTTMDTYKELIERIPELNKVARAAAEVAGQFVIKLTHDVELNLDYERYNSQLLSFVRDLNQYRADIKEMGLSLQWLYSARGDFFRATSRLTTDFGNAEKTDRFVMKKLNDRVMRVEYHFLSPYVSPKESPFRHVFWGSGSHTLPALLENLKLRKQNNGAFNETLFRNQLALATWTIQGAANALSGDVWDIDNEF
- measurement notes: biochemical
- Format: binding
- Parameters: His6-tagged TfR1 (a.a. 89-760) (ACRO Biosystems, CD1-H5243 and TFR-C524a); His6; purchased R&D Systems or Acro Biosystems 2474-TR or CD1-H5243
- settings: Geomean Ki (μM)
Starred links: 1 amine or outer side, 2 acyl side, 3 side chain; linkers in the order of their positions; H or OH if unused. Positions of bridges follow the written chain, without caps; N, C: chain ends. Residues, ends and D or L forms follow the SMILES beside them. TATB = O=C(C[*:1])N1CN(C(=O)C[*:2])CN(C(=O)C[*:3])C1
Rule: Ki below 0.02 µM gives YES, anything at or above gives NO.

[
  {
    "compound": "CC[C@H](C)[C@@H]1NC(=O)[C@@H]2CSCC(=O)N3CN(CN(C3)C(=O)CSC[C@H](NC(C)=O)C(=O)N[C@@H](CO)C(=O)N3CC[C@H]3C(=O)N[C@@H](CC(=O)O)C(=O)N[C@@H](C)C(=O)N[C@@H](Cc3c[nH]cn3)C(=O)N[C@@H](CC(C)C)C(=O)NCC(=O)N2)C(=O)CSC[C@@H](C(N)=O)NC(=O)[C@H](Cc2ccc(O)cc2)NC(=O)[C@H](CO)NC1=O [BCY17988, Ac-(SEQ ID NO: 44)]",
    "classification": "NO"
  },
  {
    "compound": "CC[C@H](C)[C@@H]1NC(=O)[C@@H]2CSCC(=O)N3CN(CN(C3)C(=O)CSC[C@@H](C(=O)N[C@@H](C)C(N)=O)NC(=O)[C@H](Cc3ccncc3)NC(=O)[C@H](CO)NC1=O)C(=O)CSC[C@H](NC(=O)[C@H](C)N)C(=O)N[C@@H](CO)C(=O)N1CCC[C@H]1C(=O)N[C@@H](CC(=O)O)C(=O)N[C@@H](C)C(=O)N[C@@H](Cc1c[nH]cn1)C(=O)N[C@@H](CC(C)C)C(=O)NCC(=O)N2 [BCY16032, A-(SEQ ID NO: 48)-A]",
    "classification": "NO"
  },
  {
    "compound": "CC[C@H](C)[C@@H]1NC(=O)[C@@H]2CSCC(=O)N3CN(CN(C3)C(=O)CSC[C@@H](C(=O)N[C@@H](C)C(N)=O)NC(=O)[C@H](Cc3ccc(O)cc3)NC(=O)[C@H](CO)NC1=O)C(=O)CSC[C@H](NC(=O)[C@H](C)N)C(=O)N[C@@H](CO)C(=O)N1C[C@H](O)C[C@H]1C(=O)N[C@@H](CC(=O)O)C(=O)N[C@@H](C)C(=O)N[C@@H](Cc1c[nH]cn1)C(=O)N[C@@H](CC(C)C)C(=O)NCC(=O)N2 [BCY16047, A-(SEQ ID NO: 15)-A]",
    "classification": "NO"
  },
  {
    "compound": "CC[C@H](C)[C@@H]1NC(=O)[C@@H]2CSCC(=O)N3CN(CN(C3)C(=O)CSC[C@@H](C(=O)N[C@@H](CCC(=O)O)C(=O)N3CCC[C@H]3C(=O)N[C@@H](Cc3c[nH]c4ccccc34)C(N)=O)NC(=O)[C@H](Cc3ccc(O)cc3)NC(=O)[C@H](CO)NC1=O)C(=O)CSC[C@H](NC(C)=O)C(=O)N[C@@H](CO)C(=O)N1CCC[C@H]1C(=O)N[C@@H](CC(=O)O)C(=O)N[C@@H](C)C(=O)N[C@@H](Cc1c[nH]cn1)C(=O)N[C@@H](CC(C)C)C(=O)NCC(=O)N2 [BCY17994, Ac-(SEQ ID NO: 9)-EPW]",
    "classification": "YES"
  },
  {
    "compound": "CC[C@H](C)[C@@H]1NC(=O)[C@@H]2CSCC(=O)N3CN(CN(C3)C(=O)CSC[C@H](NC(=O)[C@H](CC(N)=O)NC(=O)[C@H](Cc3c[nH]c4ccccc34)NC(=O)[C@@H](N)CC(N)=O)C(=O)N[C@@H](CO)C(=O)N3CCC[C@H]3C(=O)N[C@@H](CC(=O)O)C(=O)N[C@@H](C)C(=O)N[C@@H](Cc3c[nH]cn3)C(=O)N[C@@H](CC(C)C)C(=O)NCC(=O)N2)C(=O)CSC[C@@H](C(=O)N[C@@H](C)C(N)=O)NC(=O)[C@H](Cc2ccc(O)cc2)NC(=O)[C@H](CO)NC1=O [BCY17109, NWN-(SEQ ID NO: 9)-A]",
    "classification": "YES"
  },
  {
    "compound": "CC[C@H](C)[C@@H]1NC(=O)[C@@H]2CSCC(=O)N3CN(CN(C3)C(=O)CSC[C@H](NC(C)=O)C(=O)N[C@@H](CO)C(=O)N[C@@H](C)C(=O)N[C@@H](CC(=O)O)C(=O)N[C@@H](C)C(=O)N[C@@H](Cc3c[nH]cn3)C(=O)N[C@@H](CC(C)C)C(=O)NCC(=O)N2)C(=O)CSC[C@@H](C(N)=O)NC(=O)[C@H](Cc2ccc(O)cc2)NC(=O)[C@H](CO)NC1=O [BCY17987, Ac-(SEQ ID NO: 19)] (Ac-CSADAHLGCISYC-NH2; linker 1-9-13 via TATB)",
    "classification": "NO"
  },
  {
    "compound": "CC[C@H](C)[C@@H]1NC(=O)[C@@H]2CSCC(=O)N3CN(CN(C3)C(=O)CSC[C@@H](C(=O)N[C@@H](CCC(=O)O)C(=O)N3CCCC[C@H]3C(=O)N[C@@H](Cc3c[nH]c4ccccc34)C(N)=O)NC(=O)[C@H](Cc3ccc(O)cc3)NC(=O)[C@H](CO)NC1=O)C(=O)CSC[C@H](NC(C)=O)C(=O)N[C@@H](CO)C(=O)N1CCC[C@H]1C(=O)N[C@@H](CC(=O)O)C(=O)N[C@@H](C)C(=O)N[C@@H](Cc1c[nH]cn1)C(=O)N[C@@H](CC(C)C)C(=O)NCC(=O)N2 [BCY18039, Ac-(SEQ ID NO: 9)-E[Pip]W]",
    "classification": "YES"
  },
  {
    "compound": "CC[C@H](C)[C@@H]1NC(=O)[C@@H]2CSCC(=O)N3CN(CN(C3)C(=O)CSC[C@@H](C(=O)N[C@@H](C)C(N)=O)NC(=O)[C@H](Cc3ccc4ccccc4c3)NC(=O)[C@H](CO)NC1=O)C(=O)CSC[C@H](NC(=O)[C@H](C)N)C(=O)N[C@@H](CO)C(=O)N1CCC[C@H]1C(=O)N[C@@H](CC(=O)O)C(=O)N[C@@H](C)C(=O)N[C@@H](Cc1c[nH]cn1)C(=O)N[C@@H](CC(C)C)C(=O)NCC(=O)N2 [BCY16031, A-(SEQ ID NO: 36)-A]",
    "classification": "NO"
  },
  {
    "compound": "CC[C@H](C)[C@@H]1NC(=O)[C@@H]2CSCC(=O)N3CN(CN(C3)C(=O)CSC[C@H](NC(C)=O)C(=O)N[C@@H](CO)C(=O)N3CCC[C@H]3C(=O)N[C@@H](CC(=O)O)C(=O)N[C@@H](C)C(=O)N[C@@H](Cc3c[nH]cn3)C(=O)N[C@@H](CC(C)C)C(=O)NCC(=O)N2)C(=O)CSC[C@@H](C(N)=O)NC(=O)[C@H](Cc2ccc(O)cc2)NC(=O)[C@H](CO)NC1=O [BCY15891, Ac-(SEQ ID NO: 9)] (Ac-CSPDAHLGCISYC-NH2; linker 1-9-13 via TATB)",
    "classification": "NO"
  }
]
